FYI, the data here is from patent US11608341B2.

system: C5AR1 (Homo sapiens, UniProt P21730)
Sequence (P21730 whole entry): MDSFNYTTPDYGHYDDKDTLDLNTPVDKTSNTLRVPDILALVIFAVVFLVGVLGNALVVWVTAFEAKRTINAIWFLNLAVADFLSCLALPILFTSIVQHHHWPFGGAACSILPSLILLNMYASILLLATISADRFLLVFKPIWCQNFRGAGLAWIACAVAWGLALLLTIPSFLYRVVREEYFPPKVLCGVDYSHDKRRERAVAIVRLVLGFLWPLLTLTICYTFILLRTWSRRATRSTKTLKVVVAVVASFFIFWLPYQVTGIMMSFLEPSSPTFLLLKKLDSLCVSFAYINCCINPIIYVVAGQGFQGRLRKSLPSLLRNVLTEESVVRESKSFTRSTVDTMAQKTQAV
experiment_description: In vitro assay: antagonism of C5a-induced beta-arrestin recruitment (PathHunter) in CHO-K1 C5AR1 beta-arrestin cell line
condition_notes: antagonistic activity, 1-10 nM C5a agonist, geometric mean where several measurements, read-out: C5aR IC50
recorded_endpoint: IC50 (nM)

[P] CC(c1ccccc1C(F)(F)F)N1C(=O)N(C2CCN(c3c(F)cccc3C#N)CC2)Cc2cn(C)nc21 (single isomer, unassigned) [Example 289]
[Q] Cc1cccc(F)c1N1CCC(N2Cc3cn(C[C@@H]4CCN4C(=O)OC(C)C)nc3N(Cc3ccccc3C(F)(F)F)C2=O)CC1 [Example 125]
[R] Cc1cccc(F)c1N1CCC(N2C(=O)N(Cc3ccccc3C3CC3)c3cn(C4CC4)nc3C2C)CC1 (single isomer, unassigned) [Example 278]
Qu. Order by IC50, ascending. List the labels, following the order given in the request.
Ans. Q, P, R
(Q: 14 nM, P: 55 nM, R: 492 nM)

----------
system: C5AR1 (Homo sapiens, UniProt P21730)
experiment_description: In vitro assay: antagonism of C5a-induced beta-arrestin recruitment (PathHunter) in CHO-K1 C5AR1 beta-arrestin cell line
condition_notes: antagonistic activity, 1-10 nM C5a agonist, geometric mean where several measurements, read-out: C5aR IC50
Experimental: 5 μl Antagonist at 6-fold end concentration or DMSO control is added to assay medium and subsequently 5 μl 1-10 nM C5a agonist at 6 fold end concentration. Cells are centrifuged for 1 min at 1000 rpm and incubated for 1.5 hour in at 37° C. […] Plates are centrifuged for 1 min at 1000 rpm and incubated for 45 minutes at RT before being measured on a Fluostar Optima, BMG Labtech. IC50 values are calculated from a serial dilution range of antagonist using inhouse software and given in nmol/l. […]
recorded_endpoint: IC50 (nM)

Illustrative cases are given below, each with its answer.
Cc1cccc(F)c1N1CCC(N2Cc3cn(C)nc3N(Cc3ccccc3C3CC3)C2=O)CC1; 10
Cc1cccc(F)c1N1CCC(N2C(=O)N(Cc3ccccc3C(F)(F)F)c3cn(CC(C)(F)F)nc3C2C)CC1 (single isomer, unassigned) [Example 254]; 192

[A] Cc1cccc(F)c1N1CCC(N2Cc3cn(CC(C)C)nc3N(Cc3ccccc3C(F)(F)F)C2=O)CC1
[B] COc1nccc(C)c1N1CCC(N2C(=O)N(Cc3ccccc3C3CC3)c3c[nH]nc3C2C)CC1 (single isomer, unassigned)
Qu. Form field 'greater IC50' accepts A or B ; which applies? Reply briefly: the label of your chosen item.
Ans. B
(B: 37 nM, A: 25 nM)

[1] Cc1cccc(F)c1N1CCC(N2Cc3cn(CC(C)CN)nc3N(Cc3ccccc3C(F)(F)F)C2=O)CC1 (stereo not shown)
[2] Cc1cccc(F)c1N1CCC(N2C(=O)N(Cc3ccccc3C3CC3)c3cn(CC(C)(F)F)nc3C2C)CC1 (single isomer, unassigned) [Example 276]
Qu. Lower value of IC50 belongs to which: 1 or 2 ? // respond with label for picked entry
Ans. 1
(1: 203 nM, 2: 491 nM)

----------
system: C5AR1 (Homo sapiens)
Construct: host or cells: CHO-K1
experiment_description: In vitro assay: antagonism of C5a-induced beta-arrestin recruitment (PathHunter) in CHO-K1 C5AR1 beta-arrestin cell line
Type: cell-based
condition_notes: antagonistic activity, 1-10 nM C5a agonist, geometric mean where several measurements, read-out: C5aR IC50
pIC50: −log10 of the molar value.
recorded_endpoint: pIC50

Here is how some molecules turned out for pIC50.
Cc1cccc(F)c1N1CCCC(N2Cc3cn(C)nc3N(Cc3ccccc3C(F)(F)F)C2=O)C1 (single isomer, unassigned) [Example 241]; 6.95
COCn1cc2c(n1)N(Cc1ccccc1C(F)(F)F)C(=O)N(C1CCN(c3c(C)ccnc3OC)CC1)C2; 8.00
COc1nccc(C)c1N1CCC(N2Cc3cn(CC(C)(F)F)nc3N(Cc3ccccc3C(F)(F)F)C2=O)CC1; 8.10
Cc1cccc(F)c1N1CCC(N2Cc3cn(C)nc3N(Cc3ccccc3OC(F)(F)F)C2=O)CC1; 7.80

[A] Cc1cccc(F)c1N1CCC(N2Cc3cn(CC4CC4(F)F)nc3N(Cc3ccccc3C(F)(F)F)C2=O)CC1 (single isomer, unassigned) [Example 190]
[B] COc1nccc(C)c1N1CCC(N2Cc3nn(C4CC4)cc3N(Cc3ccccc3C(F)(F)F)C2=O)CC1
Qu. Could you kindly indicate whether A or B has the higher pIC50 value? API: response body contains the label of the selected item.
Ans. A

[A] Cc1cccc(F)c1N1CCC(N2Cc3cn(CC(C)O)nc3N(Cc3ccccc3C(F)(F)F)C2=O)CC1 (stereo not drawn)
[B] Cc1cccc(F)c1N1CCC(N2Cc3c(cnn3COCC[Si](C)(C)C)N(Cc3ncccc3C(F)(F)F)C2=O)CC1
[C] COc1nccc(C)c1N1CCC(N2C(=O)N(Cc3ccccc3C(F)(F)F)c3nn(C)cc3C2C)CC1 (single isomer, unassigned) [Example 331]
Qu. List items by pIC50 in falling order. Answer format: the labels, in the requested order.
Ans. C, A, B
(C: 8.22, A: 7.92, B: 7.43)

[1] Cc1cccc(F)c1N1CCC(N2Cc3cn(CC(F)F)nc3N(Cc3ccccc3C(F)(F)F)C2=O)CC1
[2] Cc1cccc(F)c1N1CCC(N2Cc3nn(COCC[Si](C)(C)C)cc3N(Cc3ncccc3C(F)(F)F)C2=O)CC1
Qu. Min pIC50? 1 | 2 Give the label under which the chosen entry appears.
Ans. 2
(2: 7.49, 1: 8.10)

----------
system: C5AR1 (Homo sapiens, UniProt P21730)
experiment_description: In vitro assay: antagonism of C5a-induced beta-arrestin recruitment (PathHunter) in CHO-K1 C5AR1 beta-arrestin cell line
condition_notes: antagonistic activity, 1-10 nM C5a agonist, geometric mean where several measurements, read-out: C5aR IC50
pIC50: −log10 of the molar value.
recorded_endpoint: pIC50

Completed entries (count: 3):
C=C(C)n1cc2c(n1)CN(C1CCN(c3c(C)cccc3F)CC1)C(=O)N2Cc1ccccc1C(F)(F)F; 8.40
CC(C)=Cn1cc2c(n1)N(Cc1ccccc1C(F)(F)F)C(=O)N(C1CCN(c3c(C)cccc3F)CC1)C2; 7.40
Cc1cccc(F)c1N1CCC(N2C(=O)N(Cc3ccccc3C(F)(F)F)c3nn(CC(C)(F)F)cc3C2C)CC1 (single isomer, unassigned) [Example 305]; 7.80

[1] COc1nccc(Cl)c1N1CCC(N2C(=O)N(Cc3ccccc3C3CC3)c3nn(C)cc3C2C)CC1 (single isomer, unassigned) [Example 379]
[2] COc1nccc(C)c1N1CCC(N2C(=O)N(Cc3ccccc3C3CC3)c3nn(C)cc3C2C)CC1 (single isomer, unassigned)
[3] CC1c2c[nH]nc2N(Cc2ccccc2C(F)(F)F)C(=O)N1C1CCN(c2c(F)cccc2C(F)F)CC1 (single isomer, unassigned) [Example 348]
Qu. Arrange by pIC50, high to low. Response field: labels, in requested order.
Ans. 3, 2, 1
(3: 7.96, 2: 6.59, 1: 6.39)

----------
system: C5AR1 (Homo sapiens, UniProt P21730)
experiment_description: In vitro assay: antagonism of C5a-induced beta-arrestin recruitment (PathHunter) in CHO-K1 C5AR1 beta-arrestin cell line
condition_notes: antagonistic activity, 1-10 nM C5a agonist, geometric mean where several measurements, read-out: C5aR IC50
Description: 5 μl Antagonist at 6-fold end concentration or DMSO control is added to assay medium and subsequently 5 μl 1-10 nM C5a agonist at 6 fold end concentration. Cells are centrifuged for 1 min at 1000 rpm and incubated for 1.5 hour in at 37° C. […] Plates are centrifuged for 1 min at 1000 rpm and incubated for 45 minutes at RT before being measured on a Fluostar Optima, BMG Labtech. IC50 values are calculated from a serial dilution range of antagonist using inhouse software and given in nmol/l. […]
pIC50: −log10 of the molar value.
recorded_endpoint: pIC50

Before answering, review these 3 worked examples.
Cc1cccc(F)c1N1CCC(N2Cc3cn(C(C)C(N)=O)nc3N(Cc3ccccc3C(F)(F)F)C2=O)CC1 (centres unmarked); 6.77
Cc1cccc(F)c1N1CCC(N2C(=O)N(Cc3ccccc3C3CC3)c3nn(C4CC4)cc3C2C)CC1 (single isomer, unassigned) [Example 339]; 7.92
Cc1cccc(F)c1N1CCC(N2Cc3cn(C)nc3N(Cc3ncccc3C(F)(F)F)C2=O)CC1; 8.00

[A] CC1c2cn(C)nc2N(Cc2ccccc2C(F)(F)F)C(=O)N1C1CCN(c2c(F)cccc2C(F)F)CC1 (single isomer, unassigned) [Example 314]
[B] Cc1cccc(F)c1N1CCC(N2Cc3cn(C4CN(CCF)C4)nc3N(Cc3ccccc3C(F)(F)F)C2=O)CC1
[C] CC1c2cn(C)nc2N(Cc2ccccc2C2CC2)C(=O)N1C1CCN(c2c(F)cccc2Br)CC1 (single isomer, unassigned) [Example 385]
[D] COC(=O)C(Cl)Cn1cc2c(n1)N(Cc1ccccc1C(F)(F)F)C(=O)N(C1CCN(c3c(C)cccc3F)CC1)C2 (centres unmarked)
[E] Cc1cccc(F)c1N1CCC(N2Cc3cn(C(C)C(F)F)nc3N(Cc3ccccc3C(F)(F)F)C2=O)CC1 (single isomer, unassigned) [Example 187]
Qu. Put the items in sequence by pIC50, from largest down. Your reply should list the labels following the order given in the request.
Ans. A, E, D, B, C
(A: 8.10, E: 7.89, D: 7.62, B: 7.28, C: 6.31)
